The reported numbers originate from patent US20080044360A1.

Please go through the items and note down their % bound.
# assayed_target: human collagen type I, acid soluble, extracted from placenta (Sigma C7774) (human) (UniProt P02452)
# Sequence (P02452 162-1218 limits assumed, chain 1 of 2): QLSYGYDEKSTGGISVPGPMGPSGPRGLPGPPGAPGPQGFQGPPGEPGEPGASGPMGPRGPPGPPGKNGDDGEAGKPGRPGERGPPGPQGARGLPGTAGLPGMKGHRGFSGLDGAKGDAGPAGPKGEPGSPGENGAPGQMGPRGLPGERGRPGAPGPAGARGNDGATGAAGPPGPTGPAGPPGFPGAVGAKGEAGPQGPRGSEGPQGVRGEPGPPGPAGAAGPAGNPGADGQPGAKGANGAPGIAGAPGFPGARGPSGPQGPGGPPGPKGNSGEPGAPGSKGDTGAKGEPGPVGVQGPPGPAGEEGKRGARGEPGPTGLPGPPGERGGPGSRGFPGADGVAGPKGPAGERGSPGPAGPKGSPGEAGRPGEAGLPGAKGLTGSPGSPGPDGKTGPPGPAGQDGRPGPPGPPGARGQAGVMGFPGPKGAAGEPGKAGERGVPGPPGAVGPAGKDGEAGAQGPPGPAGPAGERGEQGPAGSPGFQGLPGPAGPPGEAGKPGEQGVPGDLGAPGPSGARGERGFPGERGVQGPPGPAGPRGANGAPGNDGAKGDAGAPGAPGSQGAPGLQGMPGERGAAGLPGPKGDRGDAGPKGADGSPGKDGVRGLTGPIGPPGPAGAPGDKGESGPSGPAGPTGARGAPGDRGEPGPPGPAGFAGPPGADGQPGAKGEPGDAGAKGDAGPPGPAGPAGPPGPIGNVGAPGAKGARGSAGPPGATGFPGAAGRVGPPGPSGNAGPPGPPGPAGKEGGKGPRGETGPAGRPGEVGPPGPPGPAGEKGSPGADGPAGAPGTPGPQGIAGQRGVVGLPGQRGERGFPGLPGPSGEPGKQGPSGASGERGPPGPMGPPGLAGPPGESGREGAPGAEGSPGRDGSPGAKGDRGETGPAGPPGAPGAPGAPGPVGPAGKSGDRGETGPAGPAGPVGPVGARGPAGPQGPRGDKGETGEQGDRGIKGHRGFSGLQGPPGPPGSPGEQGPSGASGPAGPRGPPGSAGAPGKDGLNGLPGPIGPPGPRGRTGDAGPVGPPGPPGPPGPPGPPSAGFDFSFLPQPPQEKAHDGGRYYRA
# Sequence (P08123 80-1119 limits assumed, chain 2 of 2, further chain): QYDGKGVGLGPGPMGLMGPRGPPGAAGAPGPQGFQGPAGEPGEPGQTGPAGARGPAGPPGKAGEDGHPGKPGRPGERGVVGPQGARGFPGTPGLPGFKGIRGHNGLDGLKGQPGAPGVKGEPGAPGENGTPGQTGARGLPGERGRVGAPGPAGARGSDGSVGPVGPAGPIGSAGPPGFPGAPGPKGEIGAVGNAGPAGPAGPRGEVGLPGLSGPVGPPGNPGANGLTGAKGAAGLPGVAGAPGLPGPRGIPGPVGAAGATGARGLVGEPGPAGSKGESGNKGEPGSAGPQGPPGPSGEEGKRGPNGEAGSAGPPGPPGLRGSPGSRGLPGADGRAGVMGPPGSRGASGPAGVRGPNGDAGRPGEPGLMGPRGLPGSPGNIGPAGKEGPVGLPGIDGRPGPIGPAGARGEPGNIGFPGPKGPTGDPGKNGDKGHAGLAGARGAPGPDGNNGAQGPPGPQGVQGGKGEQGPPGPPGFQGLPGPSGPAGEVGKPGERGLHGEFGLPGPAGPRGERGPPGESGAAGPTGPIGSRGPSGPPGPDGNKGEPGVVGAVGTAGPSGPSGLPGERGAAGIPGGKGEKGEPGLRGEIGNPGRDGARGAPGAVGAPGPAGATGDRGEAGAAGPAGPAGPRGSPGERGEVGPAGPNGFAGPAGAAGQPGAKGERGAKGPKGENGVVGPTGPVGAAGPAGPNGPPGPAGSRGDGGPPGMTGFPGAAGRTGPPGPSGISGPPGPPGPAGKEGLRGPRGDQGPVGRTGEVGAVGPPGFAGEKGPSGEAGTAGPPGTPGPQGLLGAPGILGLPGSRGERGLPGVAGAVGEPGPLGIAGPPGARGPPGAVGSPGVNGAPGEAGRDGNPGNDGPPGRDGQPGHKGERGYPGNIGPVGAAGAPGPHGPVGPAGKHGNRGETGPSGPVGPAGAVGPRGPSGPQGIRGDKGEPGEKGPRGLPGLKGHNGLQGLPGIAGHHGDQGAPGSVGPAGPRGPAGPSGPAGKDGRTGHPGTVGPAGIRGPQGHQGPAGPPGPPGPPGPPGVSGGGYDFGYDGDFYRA
# assay_name: dried collagen assay
Bridge positions count the residues as written; N and C are the ends. Square brackets hold non-standard residues; d marks the D form. Primed or numbered codes have the meaning given here. Ends that are not written are not given here. dBip = N[C@H](Cc1ccc(-c2ccccc2)cc1)C(=O)O; Gd^T″ = GdDTPA-thiourea; Dap = NC[C@H](N)C(=O)O; GdT = GdDTPA-thiourea
Numbers only, in %.

binder: {Gd^T″}-GQWHCTTDFPH[Dap]YCLYG (disulfide 5-14) [Compound ID 886]
% bound (%): 8

binder: GdT-GQWHCTTRFPHH[dBip]CLYG (disulfide 5-14 (inferred); not fully specified (C-terminus); also: gadolinium complex (GdDTPA)) [Compound ID 903]
% bound (%): 3

binder: PWWCHEMPSMCFGF (disulfide 4-11 (inferred)) [SEQ ID NO 3]
% bound (%): 2

binder: {Gd^T″}-GQWHCTTRFPHH[dF]CLYG (disulfide 5-14 (inferred); not fully specified (C-terminus)) [Compound ID 901]
% bound (%): 2

[ask] What value of % bound has been reported for the following binder? GWSCHGDAADWPCQWS (disulfide 4-13 (inferred)) [SEQ ID NO 38]
[reply] 6
